Entry source: PubChem BioAssay AID1159580

- RUN_DESCRIPTION: chemical genetic growth profiling, strain panel (AID 1159580);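 further: tested at 20 µM; growth read once vehicle control cultures reached saturation at 30 °C; 1 = growth at the plate median or of vehicle wells; lower values mean less growth of the strain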
- CONDITIONS: S. cerevisiae deletion strains, growth OD, locus YDR052C, strain DBF4
Hit rate of the full screen: of about 5,500 compounds, about 2,000 (36%) were called active. Roughly 18% stayed inconclusive and do not appear here. No stated cut-off is given here; in the data, active means normalized growth mostly below about 0.91 (no sharp cut-off); inconclusive means no clear call, values can overlap the other calls; inactive means mostly above about 0.92. This is one part of the list.
Labels: active, inactive

- SMILES_INPUT: "Cc1nc(-c2ccccn2)nc(SCc2ccccc2)c1Cl"
  CLASS: "inactive"
- SMILES_INPUT: "O=[N+]([O-])c1cnc(Sc2nnc(SCc3cccc(C(F)(F)F)c3)s2)s1"
  CLASS: "active"
- SMILES_INPUT: "O=S(=O)(c1ccc(Cl)cc1)N(Cc1cccnc1)Cc1ccc(Cl)cc1Cl"
  CLASS: "inactive"
- SMILES_INPUT: "Nc1ccccc1C(=O)N/N=C\\c1cc(Br)ccc1O"
  CLASS: "inactive"
- SMILES_INPUT: "O=C(c1cccs1)N(Cc1cccnc1)Cc1ccc(Cl)cc1Cl"
  CLASS: "inactive"
- SMILES_INPUT: "O=[N+]([O-])c1ccc(S(=O)(=O)c2ccccc2)nc1S(=O)(=O)c1ccccc1"
  CLASS: "inactive"
- SMILES_INPUT: "Cc1nc(-c2cccnc2)nc(NCc2ccccc2)c1Cl"
  CLASS: "inactive"
- SMILES_INPUT: "COC(=O)c1cnn(-c2c(Cl)cccc2Cl)c1C=C(C#N)C#N"
  CLASS: "inactive"
- SMILES_INPUT: "N#Cc1c2ccccc2nc2ccccc12"
  CLASS: "active"

* * *

- RUN_DESCRIPTION: chemical genetic growth profiling, strain panel (AID 1159580);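 further: tested at 20 µM; growth read once vehicle control cultures reached saturation at 30 °C; 1 = growth at the plate median or of vehicle wells; lower values mean less growth of the strain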
- CONDITIONS: S. cerevisiae deletion strains, growth OD, locus YML124C, strain tub3, hits give low values
Hit rate of the full screen: of about 5,500 compounds, about 2,000 (36%) were called active. Roughly 18% stayed inconclusive and do not appear here. Some of the results follow.

- MOLECULE: "CC1(C)CC[C@]2(C)CC[C@]3(C)C(=CCC4[C@@]5(C)CC[C@H](O)C(C)(C)C5CC[C@]43C)C2C1 (stereo partly specified)"
  normalized growth: 0.984
- MOLECULE: "Nc1c2c(nc3ccccc13)CCCC2"
  normalized growth: 1.02
- MOLECULE: "OC(CCN1CCCCC1)(c1ccccc1)C1CCCCC1 (stereo unspecified)"
  normalized growth: 0.997
- MOLECULE: "Cc1cc(O)ccc1Cl"
  normalized growth: 0.994
- MOLECULE: "NC(N)=N/N=C/c1c(Cl)cccc1Cl"
  normalized growth: 1.01
- MOLECULE: "C/C=C1\\[C@H]2C=C(C)C[C@]1(N)c1ccc(=O)[nH]c1C2"
  normalized growth: 1.01
- MOLECULE: "Nc1c2ccccc2nc2ccccc12"
  normalized growth: 0.743
- MOLECULE: "C[C@@H]1CC[C@H]2[C@@H](C)C(O)O[C@@H]3O[C@@]4(C)CC[C@@H]1[C@]32OO4 (stereo partly specified)"
  normalized growth: 0.421
- MOLECULE: "Cc1ccnc(NS(=O)(=O)c2ccc(N)cc2)n1"
  normalized growth: 1.01
- MOLECULE: "COc1ccc2c3c([nH]c2c1)C(C)=NCC3"
  normalized growth: 0.987
- MOLECULE: "O=C1c2c(O)cccc2Cc2cccc(O)c21"
  normalized growth: 0.988
- MOLECULE: "C[C@@H]1CC[C@H]2[C@@H](C)C(=O)O[C@@H]3O[C@@]4(C)CC[C@@H]1[C@]32OO4"
  normalized growth: 0.936
- MOLECULE: "Cc1ccc(S(=O)(=O)NC(=O)NN2CC3CCCC3C2)cc1 (stereo unspecified)"
  normalized growth: 1.01
- MOLECULE: "CC1=CCC2C3(C)C1=CC(=O)OC3CC1C(C)(C)CC(O)C(O)C12C (stereo unspecified)"
  normalized growth: 0.993
- MOLECULE: "COc1ccc2[nH]cc(CCN)c2c1"
  normalized growth: 0.984
- MOLECULE: "Nc1ccc(S(=O)(=O)Nc2cnc3ccccc3n2)cc1"
  normalized growth: 0.978
